- Tested on: ICR mice
- experiment.summary: Righting reflex experiment on mice
- reported.conditions: therapeutic index, LD50/ED50, mice
readout.label: TI
Lab note: record the figure alone, no unit after it.

Here are 6 compounds together with their reported answers.
CC(C)c1cccc(C(C)C)c1O [Propofol, reference compound]    2.7
CC(c1cccc(C2CC2)c1O)C1CC1 (stereo not drawn)    5.5
C[C@@H](c1cccc([C@H](C)C2CC2)c1O)C1CC1 [Compound 18, 2,6-bis[(1R)-1-cyclopropylethyl]phenol]    7.5
CC[C@@H](C)c1cccc([C@@H](C)C2CC2)c1O    6.4
CC[C@H](C)c1cccc([C@H](C)C2CC2)c1O    7.1
CC(C)c1cccc([C@H](C)C2CC2)c1O    6.7

Name the recorded TI of the item CC(c1cccc(C2(C)CC2)c1O)C1CC1 (stereo not drawn) in your answer.
3.8

Name the recorded TI of the item CC(C)c1cccc(C(C)C2CC2)c1O (stereo not drawn) in your answer.
6.1

Name the recorded TI of the item "CC(C)c1cccc([C@@H](C)C2CCC2)c1O" in your answer.
2.3

Name the recorded TI of the item "CC[C@@H](C)c1cccc([C@H](C)C2CC2)c1O" in your answer.
6.4

Name the recorded TI of the item "CC[C@H](C)c1cccc([C@@H](C)C2CC2)c1O" in your answer.
6.9

Name the recorded TI of the item CC(C)c1cccc(C(C)C2CCC2)c1O (stereo not drawn) in your answer.
5.7

Origin of values: patent US9517988B2
